- measurement protocol: chemical genetic growth profiling, strain panel (AID 1159580);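 note: tested at 20 µM; growth read once vehicle control cultures reached saturation at 30 °C; 1 = growth at the plate median or of vehicle wells; lower values mean less growth of the strain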
- recorded conditions: S. cerevisiae deletion strains, growth OD, locus YKL190W, strain CNB1
The campaign covered roughly 5,500 compounds. About 2,000 (36%) were called active. Not shown: some 18% with an inconclusive outcome. Cut-off read from the data, not from the text of the source: active = normalized growth mostly below about 0.91 (no sharp cut-off); inconclusive = no clear call, values can overlap the other calls; inactive = mostly above about 0.92. The list shows a part of the results.
Please reply with one of these outcomes: TRUE = active, FALSE = inactive

[[record]]
molecule = "O=[N+]([O-])c1ccc2nsnc2c1"
category = "TRUE"


[Q] Recorded test call requested for CCCC(C)C1(CC)C(=O)NC(=O)NC1=O (stereo not drawn)
[A] FALSE

[Q] Recorded test call requested for Cc1occc(=O)c1/C=C/O
[A] FALSE

[Q] Recorded test call requested for O=C(O)c1ccccc1Nc1cccc(C(F)(F)F)c1
[A] FALSE

[Q] Recorded test call requested for CCCC(C)C1(CC)C(=O)N=C(S)NC1=O (stereo not drawn)
[A] FALSE

[Q] Recorded test call requested for O=C(NC(=S)NCc1ccncc1)c1ccccc1
[A] FALSE

[Q] Recorded test call requested for C=C[C@@H](C1=CC(=O)C(OC)=C(OC)C1=O)c1ccccc1
[A] TRUE

[Q] Recorded test call requested for Nc1ccc(S(=O)(=O)Nc2ccccn2)cc1
[A] FALSE

[Q] Recorded test call requested for C=CCC1(C(C)CCC)C(=O)N=C(S)NC1=O (stereo not drawn)
[A] FALSE

[Q] Recorded test call requested for COC(=O)c1cc([N+](=O)[O-])ccc1NC(C)=O
[A] FALSE

----------
- measurement protocol: chemical genetic growth profiling, strain panel (AID 1159580);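 note: tested at 20 µM; growth read once vehicle control cultures reached saturation at 30 °C; 1 = growth at the plate median or of vehicle wells; lower values mean less growth of the strain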
- recorded conditions: S. cerevisiae deletion strains, growth OD, locus YAL026C, strain drs2
Out of some 5,500 compounds screened, about 2,000 (36%) were called active. Another 18% or so got no clear call; they are omitted. No stated cut-off is given here; in the data, active means normalized growth mostly below about 0.91 (no sharp cut-off); inconclusive means no clear call, values can overlap the other calls; inactive means mostly above about 0.92. The list shows a part of the results.
Please reply with one of these outcomes: active, inactive

[[record]]
compound = "O=C1CCCC2C3CC(CN12)[C@@H]1CCCCN1C3 (some centres not stated)"
category = "inactive"

[[record]]
compound = "O=[N+]([O-])c1cc(O)c(O)c([N+](=O)[O-])c1"
category = "inactive"

[[record]]
compound = "CN[C@H](CC(=O)O)C(=O)O"
category = "inactive"

[[record]]
compound = "O=[N+]([O-])c1ccc(O)c([N+](=O)[O-])c1"
category = "active"


[Q] Recorded test call requested for C1CCN2CC3CC(CN4CCCCC34)C2C1 (configuration not stated)
[A] inactive

[Q] Recorded test call requested for OC[C@@H](O)[C@@H](O[C@@H]1O[C@H](CO)[C@@H](O)[C@H](O)[C@H]1O)[C@H](O)[C@@H](O)CO
[A] inactive

[Q] Recorded test call requested for O=[N+]([O-])c1cc([As](=O)(O)O)ccc1O
[A] inactive

----------
Kindly supply the reported normalized growth values for the records listed here.
- measurement protocol: chemical genetic growth profiling, strain panel (AID 1159580);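 note: tested at 20 µM; growth read once vehicle control cultures reached saturation at 30 °C; 1 = growth at the plate median or of vehicle wells; lower values mean less growth of the strain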
- recorded conditions: S. cerevisiae deletion strains, growth OD, locus YHR205W, strain SCH9, active compounds read low
Screen size: about 5,500 compounds; about 2,000 (36%) were called active. About 18% were inconclusive and are not listed. Some of the results follow.
Numbers only.

Below is a list of molecules. For each, state its recorded normalized growth.
1. Cn1c(CSCCOc2ccccc2)nnc1SCc1ccc(Cl)cc1Cl
2. Cc1ccc(S(=O)(=O)CCSC2=CC(=O)CC(C)(C)S2)cc1

[A]
1. 0.969
2. 0.988

Below is a list of molecules. For each, state its recorded normalized growth.
1. Fc1cccc(Cl)c1CSc1nncn1-c1ccc(OCc2ccccc2)cc1
2. CCCc1c(C(=O)NC2Cc3ccccc3C2)cnn1-c1ccccc1
3. CC(=O)Nc1ccc(/C=C/[N+](=O)[O-])cc1
4. Cc1cc(Cl)ccc1NC(=S)NNC(=S)Nc1ccc(F)cc1
5. Cc1cc(Br)ccc1-n1c(Sc2c([N+](=O)[O-])cc(C(F)(F)F)cc2[N+](=O)[O-])nc2ccccc2c1=O
6. FC(F)(F)c1cccc(NC(=S)Nc2ccccc2)c1
7. O=[N+]([O-])/C=C/c1ccc(F)cc1
8. O=C(NCCSCc1cccc(C(F)(F)F)c1)Nc1cccc(C(F)(F)F)c1

[A]
1. 0.955
2. 0.991
3. 0.723
4. 0.914
5. 0.879
6. 0.951
7. 0.00904
8. 0.989
